System: L. donovani HU3 strain in mouse peritoneal macrophages
assay_remarks: Assay for proliferation of Leishmania parasites in mouse peritoneal macrophages
Type: cell-based, Leishmania donovani
study_conditions: Leishmania donovani, Peritoneal macrophage, read-out: L. donavani Macrophage EC50
pEC50: −log10 of the molar value.
measured_parameter: pEC50

molecule | measured_parameter | censoring_operator | measurement
COC(=O)Nc1ccc(-c2cnc3nc(-c4cc(NC(=O)N5CCC(F)(F)C5)ccc4Cl)[nH]c3c2)cc1 | pEC50 | = | 6.29
Cc1cnc2nc(-c3cc(NC(=O)c4cc5ccccn5n4)ccc3F)[nH]c2c1 | pEC50 | = | 4.57
Cc1cnc2nc(-c3cc(NC(=O)N(C)c4ccccc4)ccc3Cl)[nH]c2c1 | pEC50 | < | 4.32
Cc1cnc2nc(-c3cc(Nc4ccc(N(C)C)cn4)ccc3Cl)[nH]c2c1 | pEC50 | < | 4.30
NC(=O)c1ccc(-c2cnc3nc(-c4cc(NC(=O)c5ccco5)ccc4Cl)[nH]c3c2)cc1 | pEC50 | < | 4.30
Cc1cnc2nc(-c3cc(NC(=O)C(c4ccccc4)C(C)C)ccc3Cl)[nH]c2c1 (centres unmarked) | pEC50 | = | 4.69
Cc1cnc2nc(-c3cc(NC(=O)c4cccnc4)ccc3Cl)[nH]c2c1 | pEC50 | < | 4.49
O=C(Nc1cccc(-c2nc3ncc(-c4ccc(OC(F)(F)F)cc4)cc3[nH]2)c1)c1ccco1 | pEC50 | = | 5.66

----------
Tested on: L. donovani HU3 strain in mouse peritoneal macrophages
assay_remarks: Assay for proliferation of Leishmania parasites in mouse peritoneal macrophages
Assay type: cell-based, Leishmania donovani
study_conditions: Leishmania donovani, Peritoneal macrophage, read-out: L. donavani Macrophage EC50
Excerpt: Assay for Proliferation of Leishmania Parasites The activity of a compound according to the present invention for inhibition of parasitemai can be assessed by the parasite proliferation assay. The assay measures the increase in the parasite number in the assayed plate well using a DNA intercalating dye, SYBR Green I® dye (INVITROGEN) to stain Leishmania cell nuclei. It is understood that the assays illustrate the invention without in any way limiting the scope of the invention. […]
pEC50: −log10 of the molar value.
// reported pEC50 per item
measured_parameter: pEC50

compound | measured_parameter | censoring_operator | measurement
Nc1ccc(-c2cnc3nc(-c4cc(NC(=O)Nc5ccc(C(F)(F)F)cc5)ccc4F)oc3c2)cn1 [Compound 400] | pEC50 | = | 5.40
Cc1cnc2nc(-c3cc(NC(=O)COc4ccccc4)ccc3Cl)[nH]c2c1 [Compound 120] | pEC50 | < | 4.30
Cc1cnc2nc(-c3cc(NC(=O)N4CC5CC5C4)ccc3Cl)[nH]c2c1 (centres unmarked) [Compound 230] | pEC50 | = | 4.88
Cc1cnc2nc(-c3cc(NC(=O)c4ncc[nH]4)ccc3Cl)[nH]c2c1 [Compound 95] | pEC50 | < | 4.30
Cc1cnc2nc(-c3cc(NC(=O)Cc4ncccn4)ccc3Cl)[nH]c2c1 [Compound 145] | pEC50 | < | 4.30
Cc1cnc2nc(-c3cc(Nc4ccc(Cl)cc4)ccc3Cl)[nH]c2c1 [Example 256] | pEC50 | < | 4.30
O=C(Nc1ccc(C(F)(F)F)cc1)Nc1ccc(F)c(-c2nc3ncc(-c4ccc(NCCN5CCOCC5)nc4)cc3o2)c1 [Compound 391] | pEC50 | < | 4.91
O=C(Nc1ccc(Cl)c(-c2nc3ncc(-c4ccc(OC(F)(F)F)cc4)cc3[nH]2)c1)c1ccco1 [Compound 25] | pEC50 | = | 5.02
Cc1cnc2nc(-c3cc(NC(=O)c4cc(Cl)cc(Cl)c4)ccc3Cl)[nH]c2c1 [Compound 196] | pEC50 | = | 4.96
C=Cc1cnc2nc(-c3cc(NC(=O)c4ccco4)ccc3Cl)[nH]c2c1 [Example 74] | pEC50 | = | 5.51
Cc1cnc2nc(-c3cc(NS(=O)(=O)N4CCCCC4)ccc3Cl)[nH]c2c1 [Compound 254] | pEC50 | < | 4.30
Cc1cnc2nc(-c3cc(NC(=O)c4c(C)noc4C)ccc3Cl)[nH]c2c1 [Compound 105] | pEC50 | < | 4.30
Cc1cnc2nc(-c3cc(NC(=O)c4nc(C)oc4C)ccc3Cl)[nH]c2c1 [Compound 179] | pEC50 | < | 4.30
Cc1cnc2nc(-c3cc(NC(=O)C4CCCO4)ccc3Cl)[nH]c2c1 (centres unmarked) [Compound 138] | pEC50 | < | 4.30
COCCOc1ccc(-c2cnc3nc(-c4cc(NC(=O)c5ccco5)ccc4Cl)[nH]c3c2)cc1 [Compound 60] | pEC50 | = | 5.46
O=C(Nc1ccc(Cl)c(-c2nc3ncc(Br)cc3[nH]2)c1)c1cnccn1 [Compound 375] | pEC50 | < | 4.37
Cc1cnc2nc(-c3cc(NC(=O)c4ccc(C(F)(F)F)cc4)ccc3Cl)[nH]c2c1 [Compound 153] | pEC50 | = | 4.83
